Numbers sourced from the RNAGym collection of RNA variant scans (doi:10.7554/elife.80360).

B1: Hairpin Ribozyme (parent)
chain: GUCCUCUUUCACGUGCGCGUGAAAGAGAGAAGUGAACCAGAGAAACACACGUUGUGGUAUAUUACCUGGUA

variants of: B1; assay: self-cleavage, relative activity (ratio to wild type); higher = more cleavage; co-transcriptional
Tag: satisfied if measured self-cleavage is not below 0.2, not satisfied if it is.

MUTATION_DESCRIPTOR | CATEGORY_LABEL
G57U U70G | satisfied
A36U C66U | not satisfied
C12A C37A | satisfied
G19C C65A | satisfied

Exercise: Could you please find out whether A47U G57U has self-cleavage that meets 0.2 or exceeds it?
Solution: not satisfied

Exercise: Check if self-cleavage >= 0.2 (inclusive). Item: A22C A44U
Solution: satisfied

Exercise: Tell me whether self-cleavage is at least 0.2 here: G1C A22C
Solution: satisfied

Exercise: Does the variant U2C G27C have recorded self-cleavage that is 0.2 or more?
Solution: not satisfied

Exercise: Exam item: decide whether the reported self-cleavage for U2C A35U is at least 0.2.
Solution: satisfied

Exercise: Can G1A A45U be said to have self-cleavage at or above 0.2?
Solution: not satisfied

Exercise: Reported self-cleavage reaches at least 0.2 for A23C A39U ?
Solution: satisfied

Exercise: hey, is self-cleavage for this one >= 0.2? G29C A45U
Solution: not satisfied

Exercise: hey, is self-cleavage for this one >= 0.2? A35U G54C
Solution: not satisfied

Exercise: Check the entry U20G A30U : does self-cleavage equal or exceed 0.2?
Solution: not satisfied

Exercise: Textbook exercise: given the entry C37A G40C , state whether its self-cleavage is greater than or equal to 0.2.
Solution: not satisfied

Exercise: self-cleavage >= 0.2 for A31G A35U ?
Solution: satisfied

Exercise: # bool: self-cleavage of C10U A61U >= 0.2
Solution: satisfied

Exercise: Exam item: decide whether the reported self-cleavage for G25U U63A is at least 0.2.
Solution: not satisfied

Exercise: Reported self-cleavage at or above 0.2? A28G G69A
Solution: satisfied

Exercise: Quick check, self-cleavage >= 0.2? C37A U60G
Solution: not satisfied

Exercise: Answer whether self-cleavage of A28G U67C is greater than or equal to 0.2.
Solution: satisfied

Exercise: Check this variant for self-cleavage at or above 0.2: A11G C38G
Solution: not satisfied

Exercise: Decide: is the reported value of self-cleavage for C4G C50G equal to or greater than 0.2?
Solution: not satisfied
